TEST SYSTEM: hGPR120 (Homo sapiens, UniProt Q5NUL3)
Construct: expressed in transfected cells; host or cells: CHO-K1
Sequence (Q5NUL3 whole entry): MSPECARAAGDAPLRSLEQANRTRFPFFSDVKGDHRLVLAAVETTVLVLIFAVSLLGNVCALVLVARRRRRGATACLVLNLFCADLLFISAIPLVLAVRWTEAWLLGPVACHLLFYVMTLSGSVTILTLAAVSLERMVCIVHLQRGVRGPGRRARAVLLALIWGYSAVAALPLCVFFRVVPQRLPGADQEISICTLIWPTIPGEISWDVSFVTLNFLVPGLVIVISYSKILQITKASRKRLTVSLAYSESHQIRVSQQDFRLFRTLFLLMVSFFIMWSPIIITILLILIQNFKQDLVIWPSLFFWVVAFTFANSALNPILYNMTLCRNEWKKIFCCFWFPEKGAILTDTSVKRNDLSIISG
TEST DETAILS: Measurement of activity of GPR120 agonist (cell-based assay), calcium fluorescence
MEASUREMENT PARAMETERS: CHO-K1 cells expressing Ga16 and hGPR120; Calcium 5 dye fluorescence; activity class
pEC50: −log10 of the molar value.
Catalogue of pEC50 readings, one per entry.

# COMPOUND, pEC50
records = [
    ("CC(C)Sc1ncccc1COc1ccc(CCC(=O)O)c(F)c1 [Example 7]", "> 6.70"),
]

# input Return pEC50 (reported value) for this compound: O=C(O)C1CC1c1ccc(OCc2cccnc2SC2CCCC2)c(F)c1 (single isomer, unassigned) [Example 130]
# output 5.70 to 6.70

# input Return pEC50 (reported value) for this compound: CC(C)Sc1cccc(COc2c(F)cc(C3CC3C(=O)O)cc2F)n1 (stereo not drawn) [Example 152]
# output > 6.70

# input Return pEC50 (reported value) for this compound: CC(Cc1ccc(OCc2cccc(SC3CCCC3)n2)c(F)c1)C(=O)O (stereo not drawn) [Example 54]
# output > 6.70

# input Return pEC50 (reported value) for this compound: CCCSc1ncccc1COc1ccc(CC(C)C(=O)O)cc1Cl (stereo not drawn) [Example 92]
# output > 6.70

# input Return pEC50 (reported value) for this compound: CC(C)Sc1nccc(COc2c(F)cc(CCC(=O)O)cc2F)n1 [Example 24]
# output 5.70 to 6.70

# input Return pEC50 (reported value) for this compound: COc1cc(CCC(=O)O)ccc1OCc1cccnc1SC1CCCC1 [Example 58]
# output > 6.70

# input Return pEC50 (reported value) for this compound: CC(C)Sc1ncccc1COc1ccc(CCCC(=O)O)cc1 [Example 13]
# output > 6.70

# input Return pEC50 (reported value) for this compound: O=C(O)CC1CC1c1ccc(OCc2cccc(SC3CCCC3)n2)c(F)c1 (stereo not drawn) [Example 120]
# output 5.70 to 6.70
